# tgt: CYP2D6 (Homo sapiens, UniProt P10635)
# Construct: tissue XenoTech LLC Lot 0610351; host or cells: pooled human liver microsomes
# Sequence (P10635 whole entry): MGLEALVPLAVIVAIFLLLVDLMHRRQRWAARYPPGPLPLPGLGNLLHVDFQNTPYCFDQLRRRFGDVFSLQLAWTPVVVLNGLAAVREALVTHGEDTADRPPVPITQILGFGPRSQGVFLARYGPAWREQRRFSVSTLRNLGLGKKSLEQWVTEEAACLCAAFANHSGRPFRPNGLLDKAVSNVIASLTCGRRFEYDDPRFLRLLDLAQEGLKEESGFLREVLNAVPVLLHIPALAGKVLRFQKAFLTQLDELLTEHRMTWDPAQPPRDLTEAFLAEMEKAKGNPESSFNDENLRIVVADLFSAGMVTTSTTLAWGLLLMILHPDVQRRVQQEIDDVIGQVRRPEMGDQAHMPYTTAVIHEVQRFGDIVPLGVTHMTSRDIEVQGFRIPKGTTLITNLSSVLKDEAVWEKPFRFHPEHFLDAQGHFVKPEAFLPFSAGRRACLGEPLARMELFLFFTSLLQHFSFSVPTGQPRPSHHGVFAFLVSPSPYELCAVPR
# assay-explanation: CYP2D6 inhibition assay (bufuralol, pooled human liver microsomes)
# Type: in vitro ADME
# conditions: pH 7.4, probe bufuralol (5 μM), test compound 3 μM, human liver microsomes 0.25 mg/mL
endpoint: inhibition at 10 min, 3 μM (%)

> print(dat)
                                   compound                    endpoint  value.measured
1  CC(F)(F)c1ccc(C[C@H](N)CCc2ncc(-c3ccc4cnc(F)cc4c3)s2)cn1  inhibition at 10 min, 3 μM              71
2  N[C@H](CNc1ncc(-c2ccc3cnccc3c2)s1)Cc1ccc(C(F)(F)F)cc1 [4′, reference compound]  inhibition at 10 min, 3 μM              78
3  CC(F)(F)c1ccc(C[C@H](N)CNc2ncc(-c3ccc4cnc(F)cc4c3)s2)cn1  inhibition at 10 min, 3 μM              23
4  N[C@H](CNc1ncc(-c2ccc3cnccc3c2)s1)[C@@H](CO)c1ccc(C(F)(F)F)cc1 [33′, reference compound]  inhibition at 10 min, 3 μM              88
5  N[C@H](CNc1ncc(-c2ccc3cnccc3c2)s1)CN1CCC(C(F)(F)F)CC1 [Comparative Example 25′, reference compound]  inhibition at 10 min, 3 μM              81
6  COCc1nc(NC[C@@H](N)Cc2ccc(C(F)(F)F)cc2)sc1-c1ccc2cnccc2c1 [24′, reference compound]  inhibition at 10 min, 3 μM              94
7  COCc1nc(NC[C@@H](N)Cc2ccc(C(F)(F)F)nc2)sc1-c1ccc2cnc(F)cc2c1  inhibition at 10 min, 3 μM              75

###

# assay-explanation: In vivo pharmacokinetics, IV and oral gavage
# Design: species or system male Sprague-Dawley rats
# conditions: Table 5; rat, PO 5 mg/kg, IV 2 mg/kg
Counter-ions that a name gives are not always drawn.
endpoint: FPO (%)

> print(dat)
                                   molecule  endpoint  value.measured
1  N[C@H](CCc1ncc(-c2ccc3cnc(F)cc3c2)s1)[C@@H](O)c1ccc(C(F)(F)F)cc1 [Example 36, trifluoroacetate]       FPO              64
2  N[C@H](CNc1ncc(-c2ccc3cnccc3c2)s1)Cc1ccc(C(F)(F)F)nc1 [2′, reference compound]       FPO               5
3  COCc1nc(NC[C@@H](N)Cc2ccc(C(F)(F)F)nc2)sc1-c1ccc2cnc(F)cc2c1       FPO              40
4  N[C@H](CNc1ncc(-c2ccc3cnc(F)cc3c2)s1)Cc1ccc(C(F)(F)F)nc1       FPO              40

###

# assay-explanation: In vivo pharmacokinetics, IV and oral gavage
# Set-up: species or system male Sprague-Dawley rats
# conditions: Table 6; rat, PO 5 mg/kg, IV 2 mg/kg
Structures can show the parent of a compound that is named as a salt.
endpoint: Fpo (%)

> print(dat)
                                   compound  value.measured
1  N[C@H](CNc1ncc(-c2ccc3cnc(F)cc3c2)s1)Cc1ccc(C(F)(F)F)cc1 [Example 4, trifluoroacetate]             65%
2  C[C@@H](c1ccc(C(F)(F)F)cc1)[C@H](N)CNc1ncc(-c2ccc3cnc(F)cc3c2)s1             52%
3  CC(F)(F)c1ccc([C@H](O)[C@H](N)CNc2ncc(-c3ccc4cnc(F)cc4c3)s2)cc1 [Example 38, trifluoroacetate]             45%
4  N[C@H](CCc1ncc(-c2ccc3cnccc3c2)s1)[C@@H](O)c1ccc(C(F)(F)F)cc1 [36′, reference compound]             19%

Cited source for all entries: patent US20110263647A1
